TESTED_TARGET: Vitamin D3 receptor (Homo sapiens) (UniProt P11473)
Sequence (P11473 whole entry, looked up): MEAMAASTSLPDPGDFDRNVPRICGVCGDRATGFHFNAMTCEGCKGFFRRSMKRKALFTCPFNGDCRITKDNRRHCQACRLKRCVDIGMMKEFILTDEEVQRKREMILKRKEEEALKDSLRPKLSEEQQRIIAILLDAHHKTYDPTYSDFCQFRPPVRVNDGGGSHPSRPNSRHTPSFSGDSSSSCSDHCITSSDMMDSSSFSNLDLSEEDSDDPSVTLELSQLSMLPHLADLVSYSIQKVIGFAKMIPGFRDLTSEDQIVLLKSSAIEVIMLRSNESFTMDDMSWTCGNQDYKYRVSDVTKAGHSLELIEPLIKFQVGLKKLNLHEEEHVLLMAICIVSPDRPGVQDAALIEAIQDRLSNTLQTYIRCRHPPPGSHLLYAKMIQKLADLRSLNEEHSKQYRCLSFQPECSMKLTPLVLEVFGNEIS
ASSAY_INFO: qHTS assay to identify small molecule agonists of the vitamin D receptor (VDR) signaling pathway (AID 743222); note: % is set by controls: 0 for no effect and ±100 for the full control effect
CONDITIONS_USED: HEK293T VDR-UAS-bla, beta-lactamase FRET ratio, 16 h; series mostly up to 63.5 µM
Records with an inconclusive call do not appear. Activity calls are given as the source filed them. Calls come from the whole dose curve.
REPORTED_PROPERTY: outcome

Check out these entries, answers already filled in.
[
  {
    "MOLECULE": "CC/C=C\\C/C=C\\C/C=C\\CCCCCCCC(=O)OCC",
    "outcome": "inactive"
  },
  {
    "MOLECULE": "CC(C)Cc1ccc(CC(=O)O)cc1",
    "outcome": "inactive"
  },
  {
    "MOLECULE": "Nc1c(Cl)cc(Cl)cc1[N+](=O)[O-]",
    "outcome": "inactive"
  },
  {
    "MOLECULE": "O=C(O)CNC(=O)c1ccccc1I",
    "outcome": "inactive"
  },
  {
    "MOLECULE": "O=C(O)CN1C(=O)c2cccc3cccc(c23)C1=O",
    "outcome": "inactive"
  }
]

Exam item: Please look up its outcome: CC1CCCC(=O)C1=O (centres undefined)
Marked response: inactive

Exam item: And `O=C(O)CCS` ?
Marked response: inactive

---

ASSAY_INFO: qHTS assay to identify small molecule antagonists of the estrogen receptor alpha (ER-alpha) signaling pathway - cell viability counter screen (AID 743074);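 note: HEK293 cells carrying ER-alpha-UAS-bla reporter stimulated with 17beta-estradiol; % is set by controls: 0 for no effect and ±100 for the full control effect; nearly all actives have a fitted effect of over 45% in size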
CONDITIONS_USED: ERalpha-bla HEK293 viability, CellTiter-Glo luminescence, 18 h; series mostly up to 69.4 µM
Records with an inconclusive call do not appear. Active and inactive are the calls of the source. The call rests on the fitted dose curve.
REPORTED_PROPERTY: outcome

Check out these entries, answers already filled in.
[
  {
    "COMPOUND": "CC(C)C(O)C(C)(C)CO (stereo not given)",
    "outcome": "inactive"
  },
  {
    "COMPOUND": "CC(=O)OCCC1CCCCC1",
    "outcome": "inactive"
  },
  {
    "COMPOUND": "CC(C)(C)C1(CCc2ccc(Cl)cc2)CO1 (stereo not given)",
    "outcome": "inactive"
  },
  {
    "COMPOUND": "CC(=O)OCC(=O)[C@@]1(OC(C)=O)[C@@H](C)C[C@H]2[C@@H]3C[C@H](F)C4=CC(=O)C=C[C@]4(C)[C@@]3(F)[C@@H](O)C[C@@]21C",
    "outcome": "inactive"
  }
]

Now consider the entry below.
Exam item: Please look up its outcome: `C=C(C)c1ccccc1`
Marked response: inactive

---

ASSAY_INFO: qHTS assay to identify small molecule antagonists of the sonic hedgehog signaling (Shh) pathway (AID 1259369); note: nearly all actives have a fitted effect of over 45% in size
CONDITIONS_USED: NIH/3T3 Gli1-Luc reporter, Shh antagonist, luminescence 24 h; series mostly up to 92.4 µM
Results filed as inconclusive are left out. Activity calls are given as the source filed them. Calls come from the whole dose curve.
Please state which outcome applies, choosing from 1 (yes) (active), 0 (no) (inactive)

[
  {
    "COMPOUND": "CC(C)(O)c1coc(S(=O)(=O)NC(=O)Nc2c3c(cc4c2CCC4)CCC3)c1",
    "CLASS_NAME": "1 (yes)"
  },
  {
    "COMPOUND": "CC(=O)c1ccc[nH]1",
    "CLASS_NAME": "0 (no)"
  },
  {
    "COMPOUND": "O=C(O)CCC(=O)c1ccc(-c2ccccc2)cc1",
    "CLASS_NAME": "0 (no)"
  }
]

Exam item: Answer briefly: the call reported for CC1CCC(C(C)CS)CC1S (stereo not drawn) in this assay.
Marked response: 0 (no)

Exam item: And `CC(C)c1ccc(C(=O)N=C(N)N)cc1S(C)(=O)=O` ?
Marked response: 0 (no)

---

TESTED_TARGET: Nuclear receptor subfamily 1 group I member 3 (Homo sapiens) (UniProt Q14994)
Sequence (Q14994 whole entry, looked up): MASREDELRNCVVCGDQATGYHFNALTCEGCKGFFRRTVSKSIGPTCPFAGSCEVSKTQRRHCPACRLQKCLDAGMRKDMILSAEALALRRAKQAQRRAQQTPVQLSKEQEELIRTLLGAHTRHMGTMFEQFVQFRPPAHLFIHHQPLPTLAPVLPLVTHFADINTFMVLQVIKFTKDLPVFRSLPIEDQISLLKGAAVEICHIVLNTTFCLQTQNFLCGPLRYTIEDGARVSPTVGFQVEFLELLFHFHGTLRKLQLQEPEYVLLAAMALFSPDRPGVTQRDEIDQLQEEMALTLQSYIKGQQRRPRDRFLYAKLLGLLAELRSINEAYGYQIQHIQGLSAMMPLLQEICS
ASSAY_INFO: qHTS assay to identify small molecule agonists of the constitutive androstane receptor (CAR) signaling pathway (AID 1224839); note: nearly all actives have a fitted effect of over 15% in size;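 for activation: HepG2 cells stably carrying human CAR and a CYP2B6 luciferase reporter; % is set by controls: 0 for no effect and ±100 for the full control effect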
CONDITIONS_USED: HepG2 hCAR CYP2B6-luciferase, agonist mode, 24 h; series mostly up to 92.4 µM
Text: National Center for Advancing Translational Sciences [NCATS] NIH Chemical Genomics Center [NCGC] U.S. Environmental Protection Agency [EPA] National Institutes of Environmental Health Sciences [NIEHS] National Toxicology Program [NTP] […] Assay Protocol Summary: A double-stable (hCAR and CYP2B6-2.2kb) transfected cell line, derived from human hepatoma (HepG2) cells, was utilized for the duration of the quantitative high-throughput screens. […]
Results filed as inconclusive are left out. The source made the active and inactive calls. Calls follow the shape of the dose curve; as a rule, active = well fitted activation curve with a large enough effect in the repeat runs; inconclusive = weak or mixed curves; inactive = no such curve, though single readings can be large or run the other way.
Please state which outcome applies, choosing from active, inactive

Would you please look over these solved cases?
[
  {
    "COMPOUND": "CCN(CC)CC(=O)Nc1c(C)cccc1C(=O)OC",
    "CLASS_NAME": "active"
  },
  {
    "COMPOUND": "O=C1OC[C@H](Cc2cccc(O)c2)[C@H]1Cc1cccc(O)c1",
    "CLASS_NAME": "inactive"
  },
  {
    "COMPOUND": "Cc1ccc(Cl)cc1N",
    "CLASS_NAME": "inactive"
  },
  {
    "COMPOUND": "CCC(CO)(CO)[N+](=O)[O-]",
    "CLASS_NAME": "inactive"
  },
  {
    "COMPOUND": "CC(=O)C(C)=O",
    "CLASS_NAME": "inactive"
  }
]

Exam item: Answer briefly: the call reported for `O=C(O)/C=C/c1ccc(O)c(O)c1` in this assay.
Marked response: inactive

Exam item: And CC(C)(C)C1(CCc2ccc(Cl)cc2)CO1 (configuration not stated) ?
Marked response: inactive

Exam item: And `Cc1cn([C@H]2C[C@H](F)[C@@H](CO)O2)c(=O)[nH]c1=O` ?
Marked response: inactive

Exam item: And `CN=C(N)NC(=O)Nc1c(C)cccc1C` ?
Marked response: inactive

Exam item: And COc1cc(NC(C)CCCN)c2ncccc2c1 (configuration not stated) ?
Marked response: inactive

Exam item: And `CSCC[C@H](NC(=O)[C@H](Cc1c[nH]c2ccccc12)NC(=O)CCNC(=O)OC(C)(C)C)C(=O)N[C@@H](CC(=O)O)C(=O)N[C@@H](Cc1ccccc1)C(N)=O` ?
Marked response: inactive

Exam item: And `C/C(C=O)=C\c1ccccc1` ?
Marked response: inactive

---

ASSAY_INFO: qHTS assay to test for compound auto fluorescence at 535 nm (green) in HepG2 cells (AID 720675); note: % is set by controls: 0 for no effect and ±100 for the full control effect
CONDITIONS_USED: green autofluorescence 485/535 nm, 1 h; series mostly up to 91.3 µM
Active and inactive are the calls of the source. Calls follow the shape of the dose curve; as a rule, active = well fitted curve in the direction sought with a large enough effect in the repeat runs; inconclusive = weak or mixed curves; inactive = flat fitted curve, though single readings scatter.
REPORTED_PROPERTY: fluorescence, % of fluorescein control

Check out these entries, answers already filled in.
[
  {
    "COMPOUND": "CCN(CC)C(=O)/C(C#N)=C/c1cc(O)c(O)c([N+](=O)[O-])c1",
    "fluorescence, % of fluorescein control": "inactive"
  },
  {
    "COMPOUND": "O=C(O)CNC(=O)c1ccccc1I",
    "fluorescence, % of fluorescein control": "inactive"
  },
  {
    "COMPOUND": "Cc1cccc(C)c1NC(=O)c1cc(S(N)(=O)=O)c(Cl)cc1O",
    "fluorescence, % of fluorescein control": "inactive"
  },
  {
    "COMPOUND": "C[C@@H]1C[C@H]2[C@@H]3CCC4=CC(=O)C=C[C@]4(C)[C@@]3(F)[C@@H](O)C[C@]2(C)[C@@]1(O)C(=O)COP(=O)(O)O",
    "fluorescence, % of fluorescein control": "inactive"
  },
  {
    "COMPOUND": "CC(=O)OC(C)C[N+](C)(C)C (centres undefined)",
    "fluorescence, % of fluorescein control": "0.0253% [at 18.6 µM] (inactive)"
  }
]

Exam item: Please look up its fluorescence, % of fluorescein control: `CCSC(=O)N(CC)CC`
Marked response: inactive

Exam item: And `O=C(O)CO` ?
Marked response: inactive

Exam item: And `CCCCCC` ?
Marked response: inactive

Exam item: And CC1C(C)(C)C2=C(C(=O)CCC2)C1(C)C (centres undefined) ?
Marked response: inactive

Exam item: And CC1CCCO1 (centres undefined) ?
Marked response: inactive

Exam item: And COc1cc(NC(C)CCCN)c2ncccc2c1 (centres undefined) ?
Marked response: -0.0145% [at 18.6 µM] (inactive)

Exam item: And CNC1CCCN(c2c(F)cc3c(=O)c(C(=O)O)cn(C4CC4)c3c2OC)C1 (centres undefined) ?
Marked response: inactive

Exam item: And `C1CCCCC1` ?
Marked response: inactive

Exam item: And CCC(Cl)CC(Cl)C(Cl)C(Cl)C(Cl)C(C)Cl (centres undefined) ?
Marked response: -0.0606% [at 13.4 µM] (inactive)
